This collection of values is drawn from patent US4871771A.

Property: Ki; scope: individual compounds
- measured.target: LTB4 Induced Ca^2 + flux (U937 cells) (Homo sapiens)
- Construct: endogenous in cells
- Sequence (Q15722 whole entry): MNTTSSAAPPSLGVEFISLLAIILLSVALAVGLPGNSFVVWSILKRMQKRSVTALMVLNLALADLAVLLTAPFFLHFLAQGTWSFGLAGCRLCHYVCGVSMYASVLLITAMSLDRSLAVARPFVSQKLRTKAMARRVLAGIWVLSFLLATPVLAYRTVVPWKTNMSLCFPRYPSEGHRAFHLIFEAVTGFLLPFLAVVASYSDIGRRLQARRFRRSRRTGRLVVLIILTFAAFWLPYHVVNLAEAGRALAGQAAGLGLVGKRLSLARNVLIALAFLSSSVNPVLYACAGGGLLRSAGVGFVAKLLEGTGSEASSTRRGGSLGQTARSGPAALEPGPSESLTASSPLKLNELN
- test.details: LTB4 induced calcium mobilization (Ca2+ flux) in U937 cells measured with fura-2
observable: Ki (µM)

> print(dat)
                   compound.structure.string  observable  measured
 1  O=C(O)CCSC(SCCC(=O)O)c1ccccc1CCCCCCCSc1ccc(Br)cc1          Ki       6.7
 2  O=C(O)CCSC(SCCC(=O)O)c1cccc(CCCCCCCCc2ccccc2)c1          Ki       5.2
 3  O=C(O)CCSC(SCCC(=O)O)c1ccccc1CCCCCCCCc1ccccc1          Ki         7
 4  O=C(O)CCSC(SCCC(=O)O)c1ccccc1CCCCCCCCCCCC(F)(F)F          Ki       7.8
 5  O=C(O)CCSC(SCCC(=O)O)c1ccc(C(F)(F)F)cc1CCCCCCCCc1ccccc1          Ki       8.7
 6  O=C(O)CCSC(SCCC(=O)O)c1ccccc1CCCCCCCCCCc1ccccc1          Ki       4.8
 7  O=C(O)CCSC(SCCC(=O)O)c1ccccc1CCCCCCCSc1ccc(F)cc1          Ki       6.4
 8  CCCCCCCCCCCOc1ccc([N+](=O)[O-])cc1C(SCCC(=O)O)SCCC(=O)O          Ki         5
 9  CCCCCCCCCCCOc1ccc(Br)cc1C(SCCC(=O)O)SCCC(=O)O          Ki       5.6
10  COc1ccc(SCCCCCCCc2ccccc2C(SCCC(=O)O)SCCC(=O)O)cc1          Ki       7.6

====

Form field: pKi (one value per entry).
- measured.target: [^3 H]-LTB4 binding sites on human U937 cell membranes (Homo sapiens)
- Construct: Harvested U937 cells were washed with 50 mM Tris-HCl; endogenous in cells
- Sequence (Q15722 whole entry): as above
- test.details: Receptor binding affinity: competition for [3H]-LTB4 binding sites on human U937 cell membranes
- assay.setup: [3H]-LTB4 about 0.2 nM, 25°, 30 minutes
pKi: −log10 of the molar value.
observable: pKi

> print(dat)
                                    molecule                           measured.target  measured
 1  O=C(O)CCSC(SCCC(=O)O)c1ccccc1CCCCCCCCc1ccccc1  [^3 H]-LTB4 binding sites on human U937 cell membranes (Homo sapiens)      5.36
 2  O=C(O)CCSC(SCCC(=O)O)c1ccccc1CCCCCCCSc1ccc(Br)cc1  [^3 H]-LTB4 binding sites on human U937 cell membranes (Homo sapiens)      5.55
 3  CCCCCCCCCCC#Cc1ccccc1C(SCCC(=O)O)SCCC(=O)O  [^3 H]-LTB4 binding sites on human U937 cell membranes (Homo sapiens)      5.15
 4  CCCCCCCCCCCOc1ccc([N+](=O)[O-])cc1C(SCCC(=O)O)SCCC(=O)O  [^3 H]-LTB4 binding sites on human U937 cell membranes (Homo sapiens)      5.66
 5  O=C(O)CCSC(SCCC(=O)O)c1ccccc1CCCCCCCSc1ccc(F)cc1  [^3 H]-LTB4 binding sites on human U937 cell membranes (Homo sapiens)      5.48
 6  O=C(O)CCSC(SCCC(=O)O)c1ccccc1OCCCCCCCc1ccccc1  [^3 H]-LTB4 binding sites on human U937 cell membranes (Homo sapiens)      5.28
 7  C#CCCCCCCCCCOc1ccccc1C(SCCC(=O)O)SCCC(=O)O  [^3 H]-LTB4 binding sites on human U937 cell membranes (Homo sapiens)      5.00
 8  O=C(O)CCSC(SCCC(=O)O)c1cccc(CCCCCCCCc2ccccc2)c1  [^3 H]-LTB4 binding sites on human U937 cell membranes (Homo sapiens)      5.68
 9  CCCCCCCCCC/C=C/c1ccccc1C(SCCC(=O)O)SCCC(=O)O  [^3 H]-LTB4 binding sites on human U937 cell membranes (Homo sapiens)      5.37
10  O=C(O)CCSC(SCCC(=O)O)c1ccc(C(F)(F)F)cc1CCCCCCCCc1ccccc1  [^3 H]-LTB4 binding sites on human U937 cell membranes (Homo sapiens)      5.89
11  CCCCCCCCCCCOc1ccc(Br)cc1C(SCCC(=O)O)SCCC(=O)O  [^3 H]-LTB4 binding sites on human U937 cell membranes (Homo sapiens)      5.38
12  COc1ccc(SCCCCCCCc2ccccc2C(SCCC(=O)O)SCCC(=O)O)cc1  [^3 H]-LTB4 binding sites on human U937 cell membranes (Homo sapiens)      5.92
13  CCCCCCCCCC/C=C\c1ccccc1C(SCCC(=O)O)SCCC(=O)O  [^3 H]-LTB4 binding sites on human U937 cell membranes (Homo sapiens)      5.14
14  CCCCCCCCCCCOc1ccccc1C(SCCC(=O)O)SCCC(=O)O  [^3 H]-LTB4 binding sites on human U937 cell membranes (Homo sapiens)      5.28
15  O=C(O)CCSC(SCCC(=O)O)c1ccccc1CCCCCCCCCCc1ccccc1  [^3 H]-LTB4 binding sites on human U937 cell membranes (Homo sapiens)      4.96
16  CCCCCCCCCCCOc1ccc(O)cc1C(SCCC(=O)O)SCCC(=O)O  [^3 H]-LTB4 binding sites on human U937 cell membranes (Homo sapiens)      5.22
17  O=C(O)CCSC(SCCC(=O)O)c1cc(C(F)(F)F)ccc1CCCCCCCCc1ccccc1  [^3 H]-LTB4 binding sites on human U937 cell membranes (Homo sapiens)      5.02
18  O=C(O)CCSC(SCCC(=O)O)c1ccccc1CCCCCCc1ccccc1  [^3 H]-LTB4 binding sites on human U937 cell membranes (Homo sapiens)      5.35
19  CCCCCCCCCCCCc1ccccc1C(SCCC(=O)O)SCCC(=O)O  [^3 H]-LTB4 binding sites on human U937 cell membranes (Homo sapiens)      5.19
20  CCCCCCCCCCCCc1ccccc1C(SCCC(=O)O)[S+]([O-])CCC(=O)O (centres unmarked)  [^3 H]-LTB4 binding sites on human U937 cell membranes (Homo sapiens)      5.28
